Biological target: T1, Human IL-17F (R&D Systems, cat #1335-IL-025/CF) (UniProt Q96PD4 31-163)
T1 chain: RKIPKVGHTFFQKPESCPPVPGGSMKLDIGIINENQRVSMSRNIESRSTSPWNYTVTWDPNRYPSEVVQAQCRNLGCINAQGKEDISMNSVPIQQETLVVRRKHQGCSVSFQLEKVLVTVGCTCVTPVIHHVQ
Assay: BIAcore
Metric: Kd (pM)
Numeric answer only, unit pM assumed.

{"Binder": "YW279.1.20 (antibody, V domains shown) VH: EVQLVESGGGLVQPGGSLRLSCAASGFSFTSYMMSWVRQAPGKGLEWVSTIYPESGATDYADSVKGRFTISADTSKNTAYLQMNSLRAEDTAVYYCAREGYYYSTSIKYYPWFDYWGQGTLVTVSS VL: DIQMTQSPSSLSASVGDRVTITCRASQRIKRYLAWYQQKPGKAPKLLIYGASSRASGVPSRFSGSGSGTDFTLTISSLQPEDFATYYCQQRFSQHITFGQGTKVEIKR", "Result Number": 1590}

Here's the next entry for you.
Query: Kd; subject: YW278.15.3 (antibody, V domains shown) VH: EVQLVESGGGLVQPGGSLRLSCAASGFTFTDYDISWVRQAPGKGLEWVASISPSDGYTYYADSVKGRFTISADTSKNTAYLQMNSLRAEDTAVYYCARYLYWSYVMDYWGQGTLVTVSS VL: DIQMTQSPSSLSASVGDRVTITCRASQVISSSLAWYQQKPGKAPKLLIYGASFFYSGVPSRFSGSGSGTDFTLTISSLQPEDFATYYCQQHNDLPLTFGQGTKVEIKR 115

Taken from patent US20100055103A1.
